Would you mind telling me the reported pKd of each entry?
target: UniProt:P62937; assay: CYPA-compound binary complex formation by SPR; settings: read-out: CYPA Binding Affinity
pKd: −log10 of the molar value.

1) CC(C)C(C(=O)NC1Cc2cc(O)cc(c2)-c2ccc3c(C#N)cn(c3c2)CC(C)(C)COC(=O)C2CCCN(N2)C1=O)N(C)C(=O)C1CN(C(=O)CCl)C1 (stereo not drawn)
4.82 to 5.30

Items follow; give pKd for each.
1. CCc1cn2c3cc(ccc13)-c1cc(O)cc(c1)CC(NC(=O)C(C(C)C)N(C)C(=O)C1CN(C(=O)CCl)C1)C(=O)N1CCCC(N1)C(=O)OCC(C)(C)C2 (stereo not drawn)
2. C=CC(=O)N1CCN(C(C(=O)NC2Cc3cc(O)cc(c3)-c3ccc4c(C(C)(C)C#N)cn(c4c3)CC(C)(C)COC(=O)C3CCCN(N3)C2=O)C(C)C)C(=O)C1 (stereo not drawn)
3. CC(C)[C@@H](C(=O)N[C@H]1Cc2cc(O)cc(c2)-c2ccc3nc(-c4ccccc4C#N)n(c3c2)CCCOC(=O)[C@@H]2CCCN(N2)C1=O)N(C)C(=O)C1CN(C(=O)CCl)C1
4. CC(C)[C@@H](C(=O)N[C@H]1Cc2cc(O)nc(c2)-c2ccc3c(C(C)(C)C#N)cn(c3c2)CC(C)(C)COC(=O)[C@@H]2CCCN(N2)C1=O)N(C)C(=O)C1CN(C(=O)CCl)C1
5. C=CC(=O)N1CCC(C(=O)N(C)C(C(=O)NC2Cc3cc(O)cc(c3)-c3ccc4c(c3)c(cn4C(C)(C)C#N)CC(C)(C)COC(=O)C3CCCN(N3)C2=O)C2CCCC2)C1 (stereo not drawn)

1. < 4.82
2. < 4.82
3. ≥ 5.30
4. ≥ 5.30
5. ≥ 5.30

----------
molecular target: BRAF-GTP-KRAS-G12C complex (Homo sapiens, UniProt P01116+P62937, G12C); construct: 50 nM of His6-KRas G12C-GTP (1-169); 500 nM of tagless CypA (1-165); assay: KRAS-BRAF complex disruption through competition with CYPA-compound by TR-FRET; conditions: biochemical BRAF-KRAS G12C-GTP disruption assay EC50, with CYPA
pEC50: −log10 of the molar value.
For each entry below, report its pEC50 value.

Sample records with pEC50:
1) C=CC(=O)N1CCN([C@H](C(=O)N[C@H]2Cc3cc(O)cc(c3)-c3ccc4ccn(c4c3)CCCOC(=O)[C@@H]3CCCN(N3)C2=O)C(C)C)C1=O
< 5.30
2) CC(C)[C@@H](C(=O)N[C@H]1Cc2cc(O)cc(c2)-c2ccc3c(C(C#N)C4CC4)cn(c3c2)C[C@H](C)COC(=O)[C@@H]2CCCN(N2)C1=O)N(C)C(=O)C1CN(C(=O)CCl)C1 (stereo partly drawn)
≥ 6.30

// switching to the query compound
Please report the measured pEC50 for CC(C)[C@@H](C(=O)N[C@H]1Cc2cc(O)cc(c2)-c2ccc3c(C(F)F)nn(c3c2)C[C@H](C)COC(=O)[C@@H]2CCCN(N2)C1=O)N(C)C(=O)C1CN(C(=O)CCl)C1 ≥ 6.30

----------
Target: cyclophilin A (CYPA) (Homo sapiens, UniProt P62937)
Assay: CYPA-compound binary complex formation by SPR
Settings: read-out: CYPA Binding Affinity
Description: In order to determine the affinity of compounds of the invention for cyclophilin A (CYPA), we employed surface plasmon resonance binding analysis using the following reagents, instruments and protocol as supplied by the instrument manufacturer. Reagents and Instrument • 1. Instrument: Biacore S200 (GE Healthcare Life Sciences) • 2. Running buffer: 1×HBS-P+ (1×HBS supplemented with 0.05% Tween20), pH7.4, and 2% DMSO. • 3. Ligand: CypA-Avi • 4. […]
Value type: Kd

Worked cases, answers included:
1. C=CC(=O)N1CCN([C@H](C(=O)N[C@H]2Cc3cc(O)cc(c3)-c3ccc4c(=O)n(C)n(c4c3)CCCOC(=O)[C@@H]3CCCN(N3)C2=O)C(C)C)C1=O [Compound 174]
≤ 5 µM
2. CC1COC(=O)C2CCCN(N2)C(=O)C(NC(=O)C(C(C)C)N(C)C(=O)C2CN(C(=O)CCl)C2)Cc2cc(O)cc(c2)-c2ccc3c(-c4cccc(C#N)c4)cn(c3c2)C1 (stereo not drawn) [Compound 46]
5 to 15 µM

Next, consider the following molecule.
Identify measured Kd obtained with cyclophilin A (CYPA) (Homo sapiens, UniProt P62937) for CC#CC(=O)N1CC2(CCN([C@H](C(=O)N[C@H]3Cc4cc(O)cc(c4)-c4ccc5c(C(C)(C)C#N)cn(c5c4)CC(C)(C)COC(=O)[C@@H]4CCCN(N4)C3=O)C(C)C)C2=O)C1 [Compound 259] . 5 to 15 µM
